System: SGK2
Protocol notes: Inhibition of kinase activity by SGK2 inhibitory compounds, single concentration
Format: biochemical
Experimental setup: 10 μM compound
Outcome label depends on % Inhibition at 10 μM relative to 70%: at/above gives yes, below gives no.

[
  {
    "Compound": "O=C(OCC1OC(OC(=O)c2cc(O)c(O)c(OC(=O)c3cc(O)c(O)c(O)c3)c2)C(OC(=O)c2cc(O)c(O)c(OC(=O)c3cc(O)c(O)c(O)c3)c2)C(OC(=O)c2cc(O)c(O)c(OC(=O)c3cc(O)c(O)c(O)c3)c2)C1OC(=O)c1cc(O)c(O)c(OC(=O)c2cc(O)c(O)c(O)c2)c1)c1cc(O)c(O)c(OC(=O)c2cc(O)c(O)c(O)c2)c1 (centres unmarked) [LDN-0097728]",
    "Category": "yes"
  },
  {
    "Compound": "Cc1cc(N)c2ccccc2[n+]1CCCCCCCCCC[n+]1c(C)cc(N)c2ccccc21.[Cl-].[Cl-] [LDN-0096422]",
    "Category": "yes"
  },
  {
    "Compound": "O=C(O)c1cc(O)c(=O)c2c(O)c(O)ccc2c1 [LDN-0096503]",
    "Category": "yes"
  },
  {
    "Compound": "CN(C)c1ccc(NC(=O)Nc2cccs2)cc1 [LDN-0058882]",
    "Category": "no"
  },
  {
    "Compound": "Nc1ccc2[nH]c(-c3ccco3)nc2c1 [LDN-0065931]",
    "Category": "yes"
  },
  {
    "Compound": "CC1=C(C(=O)OCc2ccc3c(c2)OCO3)C(c2cccc(Oc3ccccc3)c2)NC(=O)N1 (centres unmarked) [LDN-0025562]",
    "Category": "no"
  },
  {
    "Compound": "O=C(CSc1ncnc2c1oc1ccccc12)Nc1ccccc1 [LDN-0107896]",
    "Category": "yes"
  },
  {
    "Compound": "C=CCc1cccc(C2Nc3cccc4cccc(c34)N2)c1O [LDN-0045040]",
    "Category": "yes"
  },
  {
    "Compound": "CN(C)c1ccc(C=Cc2nc3cc(N)ccc3[nH]2)cc1 [LDN-0060496]",
    "Category": "no"
  },
  {
    "Compound": "Oc1ccccc1C1Nc2cccc3cccc(c23)N1 [LDN-0045035]",
    "Category": "yes"
  },
  {
    "Compound": "O=c1oc2c(Br)c(O)c(Br)cc2s1 [LDN-0060733]",
    "Category": "yes"
  },
  {
    "Compound": "NS(=O)(=O)c1ccc(CCNC(=O)c2ccc3c(=O)n(Cc4ccco4)c(=S)[nH]c3c2)cc1 [LDN-0036137]",
    "Category": "yes"
  },
  {
    "Compound": "COc1cccc(=O)c2c(C)n(CC(=O)c3ccccc3)c(C)c12 [LDN-0071595]",
    "Category": "no"
  },
  {
    "Compound": "COc1ccc(NC(=O)CSc2ncnc3c2oc2ccccc23)cc1 [LDN-0107905]",
    "Category": "no"
  }
]

* * *

Target or test system: PAK3 (Homo sapiens, UniProt O75914)
Construct: Recombinant human full length PAK3 enzyme was obtained (Invitrogen)
Sequence (O75914 1-544 isoform O75914-2): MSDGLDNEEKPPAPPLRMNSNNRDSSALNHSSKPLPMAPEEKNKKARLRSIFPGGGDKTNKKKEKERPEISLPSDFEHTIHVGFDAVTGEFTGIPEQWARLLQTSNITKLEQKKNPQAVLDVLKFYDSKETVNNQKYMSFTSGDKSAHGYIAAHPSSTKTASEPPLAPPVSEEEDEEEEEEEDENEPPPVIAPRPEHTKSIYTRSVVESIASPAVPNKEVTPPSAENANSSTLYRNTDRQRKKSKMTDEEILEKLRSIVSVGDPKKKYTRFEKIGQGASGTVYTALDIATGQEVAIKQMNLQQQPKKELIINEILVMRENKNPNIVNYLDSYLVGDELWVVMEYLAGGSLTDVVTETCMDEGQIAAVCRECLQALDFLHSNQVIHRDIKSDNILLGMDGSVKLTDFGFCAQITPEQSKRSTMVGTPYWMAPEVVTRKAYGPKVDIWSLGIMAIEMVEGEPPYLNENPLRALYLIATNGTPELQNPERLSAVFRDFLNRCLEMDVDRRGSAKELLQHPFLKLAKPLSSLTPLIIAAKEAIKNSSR
Protocol notes: Enzyme based PAK3 kinase assay (HTRF / TR-FRET), IC50
Experimental setup: PAK3 inhibitory compounds; IC50 done in quadruplicate
Items are presented alongside their recorded log10 of IC50.
Quantity measured: log10 of IC50 (log10 of the value in nM)

[
  {
    "Compound": "COc1ccc(-c2nc(-c3ccc(Sc4ccccc4)cc3)c(-c3ccccc3)[nH]2)cc1 [LDN-0044878]",
    "Quantity measured": "log10 of IC50",
    "Value observed": 1.48
  },
  {
    "Compound": "N#Cc1c(N)nc(SCc2ccccc2)c(C#N)c1-c1ccccc1Cl [LDN-0211958]",
    "Quantity measured": "log10 of IC50",
    "Value observed": 2.52
  },
  {
    "Compound": "Cc1ccc(-c2c(C#N)c(SCC(=O)c3ccc(O)c(O)c3)nc3c2CCCC3)o1 [LDN-0026056]",
    "Quantity measured": "log10 of IC50",
    "Value observed": 2.84
  },
  {
    "Compound": "Cc1nc(-c2ccccc2)c(-c2ccccc2)[nH]1 [LDN-0091420]",
    "Quantity measured": "log10 of IC50",
    "Value observed": 4.00
  },
  {
    "Compound": "Cc1cc(-c2ccco2)c(C#N)c(SCC(=O)c2ccc(O)c(O)c2)n1 [LDN-0041012]",
    "Quantity measured": "log10 of IC50",
    "Value observed": 2.79
  },
  {
    "Compound": "Cc1ccccc1-c1c(C#N)c(N)nc(SCc2ccccc2)c1C#N [LDN-0211959]",
    "Quantity measured": "log10 of IC50",
    "Value observed": 2.45
  },
  {
    "Compound": "Cc1cc(C)c(C#N)c(SCC(=O)c2ccc(O)c(O)c2)n1 [LDN-0211955]",
    "Quantity measured": "log10 of IC50",
    "Value observed": 3.55
  },
  {
    "Compound": "N#Cc1c(N)nc(SCc2ccccc2)c(C#N)c1-c1ccc(O)cc1 [LDN-0028618]",
    "Quantity measured": "log10 of IC50",
    "Value observed": 2.48
  }
]
